- measurement target: bovine PNPase (Bos taurus, UniProt P55859)
- Sequence (P55859 whole entry): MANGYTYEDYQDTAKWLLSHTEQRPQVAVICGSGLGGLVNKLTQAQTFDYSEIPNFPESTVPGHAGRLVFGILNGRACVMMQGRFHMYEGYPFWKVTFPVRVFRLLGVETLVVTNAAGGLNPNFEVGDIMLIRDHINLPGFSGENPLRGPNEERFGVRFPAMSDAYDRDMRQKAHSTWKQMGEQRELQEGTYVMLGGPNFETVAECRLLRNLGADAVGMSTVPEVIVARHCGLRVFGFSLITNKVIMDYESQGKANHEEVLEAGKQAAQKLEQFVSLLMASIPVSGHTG
- experimental details: biochemical
- condition info: Ki, B. taurus PNPase; dissociation constant of enzyme-inhibitor complex from initial reaction rates
pKi: −log10 of the molar value.
parameter measured: pKi

[[record]]
molecule = "O=c1[nH]cnc2c(CN3C[C@H](CO)[C@@H](O)C3)c[nH]c12 [[(+)-10], reference compound]"
parameter_measured = "pKi"
readout_number = 8.68

[[record]]
molecule = "O=c1[nH]cnc2c(CN3C[C@@H](CO)[C@H](O)C3)c[nH]c12 [[(−)-10]]"
parameter_measured = "pKi"
readout_number = 7.72


* * *

- measurement target: human PNPase (Homo sapiens, UniProt P00491)
- Sequence (P00491 whole entry): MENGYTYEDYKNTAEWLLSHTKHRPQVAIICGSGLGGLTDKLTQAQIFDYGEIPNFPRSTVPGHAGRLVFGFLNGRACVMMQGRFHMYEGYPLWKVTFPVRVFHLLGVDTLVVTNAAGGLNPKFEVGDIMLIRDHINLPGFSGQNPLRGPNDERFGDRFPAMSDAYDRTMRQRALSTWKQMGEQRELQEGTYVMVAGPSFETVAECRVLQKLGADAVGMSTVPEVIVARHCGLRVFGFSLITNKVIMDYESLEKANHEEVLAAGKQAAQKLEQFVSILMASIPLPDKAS
- experimental details: biochemical
- condition info: Ki, H. sapiens PNPase; dissociation constant of enzyme-inhibitor complex from initial reaction rates
pKi: −log10 of the molar value.
parameter measured: pKi

[[record]]
compound = "O=c1[nH]cnc2c(CN3C[C@@H](CO)[C@H](O)C3)c[nH]c12 [[(−)-10]]"
measurement_target = "human PNPase (Homo sapiens, UniProt P00491)"
readout_number = 8.82

